Reference source: patent US6346249

Assignment: determine reported log10(koff) for the given binders.
- Assay target: T1, recombinant human A33 antigen (human, UniProt Q99795 22-233, limits assumed)
- T1 construct: also called human antigen A33; immobilized recombinant human A33
- T1 sequence (looked up): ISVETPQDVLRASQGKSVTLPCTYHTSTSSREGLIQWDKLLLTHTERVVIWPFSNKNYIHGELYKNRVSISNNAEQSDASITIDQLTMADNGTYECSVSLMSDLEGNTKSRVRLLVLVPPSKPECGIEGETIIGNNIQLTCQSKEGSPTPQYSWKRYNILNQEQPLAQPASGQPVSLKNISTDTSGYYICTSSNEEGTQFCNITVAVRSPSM
- Assay comment: SPR (Biacore), recombinant human A33 immobilized on CM5 chip, Fab injected at 75-200 nM
Scale: log10; quantity: koff; unit before log: s⁻¹

Query string: Report log10(koff) for humanized Fab B (human VLB and human VHB) (Fab, V domains shown) VH: EVQVMESGGGLVKPGGSLRLSCAASGIGFSHYGISWVRQAPGKGLEWVSYIYPNYGSVDYASSVNGRFTISLDNAQNSLYLQMNSLRAEDTAVYFCARDRGYYSGSRGTRLDLWGQGTLVTVSS VL: ELQMTQSPSSLSASVGDRVTITCLASEFLFNGVSWYQQKPGKVPKFLIYGASNLESGVPSRFSGSGSGTDFTLTISSLQPEDVATYYCLGGYSGSSGLTFGGGTKVEIK please.
Result string: -3.21

Query string: Report log10(koff) for humanized Fab A (human VLA and human VHA) (Fab, V domains shown) VH: EVQVMESGGGLVKPGGSLRLSCAASGIDFSHYGISWVRQAPGKGLEWVSYIYPNYGSVDYASSVNGRFTISFDNAQNSLYLQMNSLRAEDTAVYYCARDRGYYSGSRGTRLDLWGQGTLVTVSS VL: ELQMTQSPSSLSASVGDRVTITCLASEFLFNGVSWYQQKPGKVPKFLIYGASNLESGVPSRFSGSGSGTDYTLTISSLQPEDVATYYCLGGYSGSSGLTFGGGTKVEIK please.
Result string: -3.23

Query string: Report log10(koff) for rabbit Fab 1 (rabbit VH1, VL1; chimeric rabbit/human Fab) (Fab, V domains shown, Soluble Fab from E. coli; also called rabbit 1; rabbit clone 1) VH: QQQVMESGGGLVTLGGSLTLTCKASGIDFSNNGISWVRQAPGKGLEWILYIYPDYGSTDYASWVNGRFTISLDNAQNTVFLQMTSLTAADTATYFCARDRGAYAGSRGTRLDLWGQGTLVTVSS VL: EFDMTQTPPSLSASVGETVRIRCLASEFLFNGVSWYQQKPGKPPKFLISGASNLESGVPPRFSGSGSGTDYTLTIGGVQAEDVATYYCLGGYSGSSGLTFGAGTNVEIK please.
Result string: -3.92

Query string: Report log10(koff) for humanized Fab E (human VLE and human VHE) (Fab, V domains shown) VH: EVQVMESGGGLVKPGGSLRLSCAASGFTFSHYGISWVRQAPGKGLEWVSYIYPNYGSVDYASSVNGRFTISFDNAQNSVYLQMNSLRAEDTAVYYCARDRGYYSGSRGTRLDLWGQGTLVTVSS VL: ELQMTQSPSSLSASVGDRVTITCLASEFLFNGVSWYQQKPGKAPKLLIYGASNLESGVPSRFSGSGSGTDYTLTISSLQPEDVATYYCLGGYSGSSGLTFGGGTKVEIK please.
Result string: -3.30

Query string: Report log10(koff) for humanized Fab C (human VLC and human VHC) (Fab, V domains shown) VH: EVQVMESGGGLVKPGGSLRLSCAASGIDFSHYGISWVRQAPGKGLEWVSYIYPNYGSVDYASSVNGRFTISLDNAQNSLYLQMNSLRAEDTAVYYCARDRGYYSGSRGTRLDLWGQGTLVTVSS VL: ELQMTQSPSSLSASVGDRVTITCLASEFLFNGVSWYQQKPGKAPKFLIYGASNLESGVPSRFSGSGSGTDFTLTISSLQPEDVATYYCLGGYSGSSGLTFGGGTKVEIK please.
Result string: -2.71

Query string: Report log10(koff) for humanized Fab F (human VLF and human VHF) (Fab, V domains shown) VH: EVQVMESGGGLVKPGGSLRLSCAASGIGFSHYGISWVRQAPGKGLEWVSYIYPNYGSVDYASSVNGRFTISLDNAQNSLYLQMNSLRAEDTAVYYCARDRGYYSGSRGTRLDLWGQGTLVTVSS VL: ELQMTQSPSSLSASVGDRVTITCLASEFLFNGVSWYQQKPGKAPKFLIYGASNLESGVPSRFSGSGSGTDFTLTISSLQPEDVATYYCLGGYSGSSGLTFGGGTKVEIK please.
Result string: -3.17
